Origin of measurements: PubChem BioAssay (Tox21)

Protocol Notes: A CellTox Green Cytotoxicity Assay to monitor cytotoxicity in HepG2 cells - 16 hour (AID 1224876); further: potency means the concentration at half of the fitted maximal effect; nearly all actives have a fitted effect of over 45% in size
Condition Label: CellTox Green fluorescence; series mostly up to 76.8 µM
Results filed as inconclusive are left out. Activity calls are given as the source filed them. The call rests on the fitted dose curve; in most records, active means well fitted activation curve with a large enough effect in the repeat runs; inconclusive means weak or mixed curves; inactive means flat fitted curve, though single readings scatter.
Attribute Measured: Potency

Exam item: What does the data say about its Potency? Entry: `Cc1ccc(C=O)s1`
Marked response: 27.5 µM (active)

Exam item: Give the measured Potency of CCOC(=O)COc1ccc2c(c1)CC(NCC(O)c1cccc(Cl)c1)CC2 (centres undefined) .
Marked response: 44 µM (active)

Exam item: Give the measured Potency of `CC(C)=CCC[C@](C)(O)[C@@H]1CC=C(C)CC1` .
Marked response: 43.6 µM (active)

Exam item: Any idea what its Potency is? The compound is `CCCCCCCCCCCCOCCOS(=O)(=O)O`
Marked response: 49 µM (active)

====

Protocol Notes: Human pregnane X receptor (PXR) small molecule agonists, qHTS cell viability counter screen (AID 1346977); further: on the % scale 0 is the no-effect control and ±100 the full control effect; nearly all actives have a fitted effect of over 50% in size
Condition Label: PXR-Luc HepG2 viability, CellTiter-Fluor, 24 h; series mostly up to 92.4 µM
Records with an inconclusive call do not appear. Calls of active or inactive are those of the source. Calls follow the shape of the dose curve; as a rule, active = well fitted cell-killing curve with a large enough effect in the repeat runs; inconclusive = weak or mixed curves, or effect the other way; inactive = flat fitted curve, though single readings scatter.
Attribute Measured: activity change, negative = cytotoxicity

Compound	activity change, negative = cytotoxicity
Cc1c(C(=O)NCCO)[n+](=O)c2ccccc2n1[O-]	inactive
COC(=O)N[C@H](C(=O)N[C@@H](Cc1ccccc1)[C@@H](O)CN(Cc1ccc(-c2ccccn2)cc1)NC(=O)[C@@H](NC(=O)OC)C(C)(C)C)C(C)(C)C	inactive
CCNCCO	inactive
CCOC(=O)c1ccccc1O	inactive
O=c1oc2c(O)c(O)cc3c(=O)oc4c(O)c(O)cc1c4c23	4.42% [at 19 µM] (inactive)
CC(=O)Oc1cc(C(C)C)c(OCCN(C)C)cc1C	inactive
CC1(O)CSC(C)(O)CS1 (configuration not stated)	inactive
CCCCNc1cc(C(=O)O)cc(S(N)(=O)=O)c1Oc1ccccc1	inactive

Exam item: Reported activity change, negative = cytotoxicity, compound `COC(=O)c1ccc2cc(C(=O)OC)ccc2c1` : ____
Marked response: 6.1% [at 19 µM] (inactive)

Exam item: // query activity change, negative = cytotoxicity value for entry `CCc1nnc(NS(=O)(=O)c2ccc(N)cc2)s1`
Marked response: inactive

Exam item: // returns reported activity change, negative = cytotoxicity for input `COC(=O)c1ccc(OC)cc1`
Marked response: inactive

Exam item: I would be grateful if you could share the reported activity change, negative = cytotoxicity for `CN1CCN(c2c(F)cc3c(=O)c(C(=O)O)cn(CCF)c3c2F)CC1` .
Marked response: inactive

====

Tested Target: Cytochrome P450 2D6 (Homo sapiens)
Protocol Notes: Cytochrome P450 Family 2 Subfamily D Member 6 (CYP2D6) small molecule antagonists: luciferase reporter qHTS assay (AID 1671196); further: nearly all actives have a fitted effect of over 50% in size; further: potency means the concentration at half of the fitted maximal effect
Condition Label: P450-Glo CYP2D6 enzyme assay, luciferin luminescence, 1 h; series mostly up to 115 µM
Records with an inconclusive call do not appear. The source made the active and inactive calls. Calls follow the shape of the dose curve; as a rule, active = well fitted inhibition curve with a large enough effect in the repeat runs; inconclusive = weak or mixed curves; inactive = no such curve, though single readings can be large or run the other way.
Attribute Measured: Potency

Molecule	Tested Target	Data Value
O=C(CCCl)NCc1ccccc1	Cytochrome P450 2D6 (Homo sapiens)	inactive
OCCN(CCO)CCN(CCO)CCO	Cytochrome P450 2D6 (Homo sapiens)	inactive
CCCCc1ccc2nc(NC(=O)OC)[nH]c2c1	Cytochrome P450 2D6 (Homo sapiens)	inactive
O=C(O[C@@H](C(=O)O)[C@@H](OC(=O)c1ccccc1)C(=O)O)c1ccccc1	Cytochrome P450 2D6 (Homo sapiens)	40.6 µM (active)
CCOC(=O)C(Br)c1ccccc1 (stereo not given)	Cytochrome P450 2D6 (Homo sapiens)	inactive
Cc1nc(N)nc(N)c1-c1ccc(Cl)c(Cl)c1	Cytochrome P450 2D6 (Homo sapiens)	2.19 µM (active)
CCOC(=O)[C@H](CCc1ccccc1)N[C@@H](C)C(=O)N1Cc2cc(OC)c(OC)cc2C[C@H]1C(=O)O	Cytochrome P450 2D6 (Homo sapiens)	inactive
CC/C=C\CCOC(=O)CCCCC	Cytochrome P450 2D6 (Homo sapiens)	inactive

Exam item: What Potency appears in the records for this molecule with Cytochrome P450 2D6 (Homo sapiens)? `CCCCCCCCc1ccc(S(=O)(=O)O)cc1`
Marked response: inactive

Exam item: Find the measured Potency: item `Nc1ccc(Oc2ccc(N)c(N)c2)cc1` , target or system Cytochrome P450 2D6 (Homo sapiens).
Marked response: 5.64 µM (active)

Exam item: Form field: Potency recorded for `CCCCOc1cc(C(=O)NCCN(CC)CC)c2ccccc2n1` with Cytochrome P450 2D6 (Homo sapiens) (enter value)
Marked response: 13.8 µM (active)

Exam item: Lab note: need Potency for `O=C1N(c2ccccc2)c2ccccc2C1(Cc1ccncc1)Cc1ccncc1` on Cytochrome P450 2D6 (Homo sapiens), anyone have it?
Marked response: 30.9 µM (active)

Exam item: Report Potency for `COc1ccc2nc(NC(=O)Nc3ccccc3)sc2c1` tested on Cytochrome P450 2D6 (Homo sapiens).
Marked response: inactive

Exam item: Field: Potency (Cytochrome P450 2D6 (Homo sapiens)). Entry: `CC(C)Nc1nc(N)nc(Cl)n1`
Marked response: inactive

Exam item: Test system Cytochrome P450 2D6 (Homo sapiens); read-out Potency; what value for `O=C1CCN(c2ccccc2)N1` ?
Marked response: 35.7 µM (active)

====

Protocol Notes: qHTS assay to identify small molecule antagonists of the thyroid receptor (TR) signaling pathway - cell viability counter screen (AID 743064); further: nearly all actives have a fitted effect of over 50% in size
Condition Label: GH3.TRE-Luc viability, CellTiter-Fluor, 24 h; series mostly up to 70.3 µM
Records with an inconclusive call do not appear. The source made the active and inactive calls. Calls follow the shape of the dose curve; as a rule, active = well fitted cell-killing curve with a large enough effect in the repeat runs; inconclusive = weak or mixed curves, or effect the other way; inactive = no such curve, though single readings can be large or run the other way.
I would appreciate it if you answered using one of these outcomes: active, inactive

Exam item: Please let me know the test result on file for `CCNCCO` .
Marked response: inactive

Exam item: Check the results log: what was the call for `ICCc1ccccc1` ?
Marked response: inactive

Exam item: Status in this test for `FC(F)(F)C(Cl)(Cl)Cl` ?
Marked response: inactive

Exam item: Kindly provide the recorded test outcome for the following molecule: COC(=O)C(C)O (stereo not drawn)
Marked response: inactive

Exam item: Per the assay record, what outcome was assigned to `CC(C)=CCC[C@](C)(O)[C@@H]1CC=C(C)CC1` ?
Marked response: inactive

Exam item: Please state the recorded outcome for this molecule: `CC(C)S`
Marked response: inactive

Exam item: For this molecule, state the assay outcome: `CCN(O)CC`
Marked response: inactive

Exam item: Tell me the assay call for `C=O` please.
Marked response: inactive

Exam item: Answer briefly: the call reported for `C[C@@H]1CN(c2c(F)c(N)c3c(=O)c(C(=O)O)cn(C4CC4)c3c2F)C[C@H](C)N1` in this assay.
Marked response: inactive

Exam item: Fill in: this test's call for `NS(=O)(=O)c1cc(-c2nn[nH]n2)c(NCc2cccs2)cc1Cl` is ___
Marked response: inactive

Exam item: I would be grateful if you could indicate the recorded call for `CC(C)c1ccccc1` .
Marked response: inactive

Exam item: Tell me the assay call for `ClC(Cl)Cl` please.
Marked response: inactive

Exam item: Hi, sorry to bother you, what did the test record for `Cc1nnc(SCC2=C(C(=O)O)N3C(=O)[C@@H](NC(=O)Cn4cnnn4)[C@H]3SC2)s1` ?
Marked response: inactive

Exam item: // outcome(item) with item = `NNS(=O)(=O)c1ccc(Oc2ccc(S(=O)(=O)NN)cc2)cc1`
Marked response: inactive

Exam item: Can you look up the reported call for `CCCCCCC` for me?
Marked response: inactive

Exam item: Dear all, I need the recorded test outcome for CCC1(C)NC(=O)NC1=O (stereo not drawn) , thank you.
Marked response: inactive

Exam item: What was the test verdict on `COc1ccc(Nc2ccc(OC)cc2)cc1` ?
Marked response: inactive

Exam item: What outcome does the record of this test show for `OCc1c2ccccc2cc2ccccc12` ?
Marked response: inactive

Exam item: For `Cc1c[nH]c(=S)[nH]c1=O` , which call appears in the assay record?
Marked response: inactive

Exam item: Which result was noted for this molecule in the test: CCCNC(C)C(=O)Nc1c(C)csc1C(=O)OC (stereo not drawn)
Marked response: inactive

Exam item: What call does the record list for `CCN(CC)CCOc1ccc(Cc2ccccc2)cc1` ?
Marked response: active

Exam item: Entry `COc1nc(C)nc(NC(=O)NS(=O)(=O)c2ccccc2OCCCl)n1` : call = ?
Marked response: inactive

Exam item: Name the outcome recorded for NC1=NCC2c3ccccc3Cc3ccccc3N12 (stereo not drawn) in the assay.
Marked response: inactive

Exam item: State the result this test recorded for `CCOC(=O)CS` .
Marked response: inactive

Exam item: What classification did `O=C(O)CN(CCN(CC(=O)O)CC(=O)O)CCN(CC(=O)O)CC(=O)O` end up with in this test?
Marked response: active

Exam item: Hi team, can someone confirm the assay call for `COc1cc(Cl)ccc1Cl` ?
Marked response: inactive

Exam item: Kindly provide the recorded test outcome for the following molecule: NC(Cc1ccc(F)cc1)C(=O)O (stereo not drawn)
Marked response: active

Exam item: Look up the recorded call for `Oc1ccccc1C=NCc1ccccc1` in this test.
Marked response: inactive

Exam item: Would you mind telling me which call this test gave `O=c1[nH]cnc2c1ncn2[C@@H]1O[C@H](CO)[C@@H](O)[C@H]1O` ?
Marked response: inactive

Exam item: For `CCOC(=O)c1ccccc1O` , which call appears in the assay record?
Marked response: inactive

Exam item: How was COC(C)CCO (stereo not drawn) classified in this test?
Marked response: inactive

Exam item: Given `FC(F)(F)C(F)(F)C(F)(F)C(F)(F)C(F)(F)C(F)(F)C(F)(F)C(F)(F)Br` , state the outcome it received in this test.
Marked response: inactive

Exam item: Per the records of this test, what outcome belongs to `CCCCNCCCC` ?
Marked response: inactive

Exam item: Please let me know the test result on file for `CCOc1ccc2nc(N)sc2c1` .
Marked response: inactive

Exam item: Recorded test call requested for `CN(C)C(=O)NC1(c2ccccc2)CCN(CCC[C@]2(c3ccc(Cl)c(Cl)c3)CCCN(C(=O)c3ccccc3)C2)CC1`
Marked response: active

Exam item: What classification did `C[C@@H](N)C(=O)O` end up with in this test?
Marked response: inactive

Exam item: Check the results log: what was the call for CC1(C)S[C@@H]2[C@H](NC(=O)C(C(=O)O)c3ccccc3)C(=O)N2[C@H]1C(=O)O (stereo partly drawn) ?
Marked response: inactive

Exam item: Test call for this molecule, please: `OCCN1CCN(CCO)CC1`
Marked response: inactive

Exam item: Please let me know the test result on file for `CC1(C)O[C@@H]2C[C@H]3[C@@H]4CCC5=CC(=O)CC[C@]5(C)[C@@]4(F)[C@@H](O)C[C@]3(C)[C@]2(C(=O)CCl)O1` .
Marked response: inactive

Exam item: In this assay, the call recorded for `O=c1[nH]c(=O)n([C@H]2C[C@H](O)[C@@H](CO)O2)cc1C(F)(F)F` was what?
Marked response: inactive

Exam item: # outcome recorded in this test, key = `C=CCc1cc(OC)c(O)c(C(=O)NCCO)c1`
Marked response: inactive

Exam item: Dear all, I need the recorded test outcome for `C[C@]12C(=O)OC(=O)[C@H]1[C@H]1C=C[C@@H]2C1` , thank you.
Marked response: inactive

Exam item: Status in this test for `O=C(O)C(=O)Cc1c[nH]c2ccccc12` ?
Marked response: inactive

Exam item: What was the test verdict on `N#Cc1ccc(C(c2ccc(C#N)cc2)n2cncn2)cc1` ?
Marked response: inactive

Exam item: Short answer needed: outcome of this test for `OCc1ccccc1O` ?
Marked response: inactive

Exam item: Just curious, what result did `Nc1ccc2ccccc2c1S(=O)(=O)O` get here?
Marked response: inactive

Exam item: Would you mind telling me which call this test gave `Oc1ccccc1F` ?
Marked response: inactive

Exam item: Recorded test outcome, item `CCC(=O)Nc1ccc(O)cc1`
Marked response: inactive

Exam item: Answer briefly: the call reported for `O=Cc1ccc(F)c(Br)c1` in this assay.
Marked response: inactive

Exam item: Please indicate how the test categorized CC(=O)OC1C2(C)CCC(C2)C1(C)C (stereo not drawn) .
Marked response: inactive

Exam item: # fetch the recorded call for `O=C1CCN(c2ccccc2)N1` here
Marked response: inactive

Exam item: So what was the verdict on CC1=NN(c2cc(Cl)c(S(=O)(=O)O)cc2Cl)C(=O)C1N=Nc1ccc(S(=O)(=O)O)cc1 (stereo not drawn) in this test?
Marked response: inactive

Exam item: Just curious, what result did `CC(C)OC(C)C` get here?
Marked response: inactive

Exam item: Field: outcome | Entry: `CC/C=C\CCOC(=O)CCCCC`
Marked response: inactive

Exam item: Give the logged outcome of this assay for the following molecule: `Nc1cccc(S(=O)(=O)O)c1`
Marked response: inactive

Exam item: Check the results log: what was the call for `COc1cc2c(cc1N)oc1ccccc12` ?
Marked response: inactive

Exam item: Could you please tell me the result logged for `CCCOCCC` in this assay?
Marked response: inactive

Exam item: Answer briefly: the call reported for `OCC(CBr)(CBr)CBr` in this assay.
Marked response: inactive
